Consider the following compounds and their measured viability, T/C readings.
Tested on: PDC 899932-113-R3-J6 complex spheroid viability;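 also: spheroids exposed to agents for seven days before readout; 100% = DMSO vehicle control wells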
METHOD: Anticancer human tumor 899932-113-R3-J6-PDC patient-derived melanoma cell line growth inhibition [RAS]
STUDY CONDITIONS: second compound 0.00316 µM; first compound 10 µM; active compounds read low
Numbers only here, please. The scale is %.

CC(C)NCC(C(=O)N1CCN(c2ncnc3c2C(C)CC3O)CC1)c1ccc(Cl)cc1 (stereo not drawn) + C=CC(=O)N1CCN(c2nc(OCC3CCCN3C)nc3c(F)c(-c4nc(N)cc(C)c4C(F)(F)F)c(Cl)cc23)C(C)C1 : 33
NC1c2ccccc2OC12CCN(c1cnc3c(N4CCCc5ncccc54)n[nH]c3n1)CC2 (stereo not drawn) + C=CC(=O)N1CCN(c2nc(OCC3CCCN3C)nc3c(F)c(-c4nc(N)cc(C)c4C(F)(F)F)c(Cl)cc23)C(C)C1 : 89.9

We next turn to a different compound, shown below.
**Q:** Given C[C@@H](NC(=O)c1ncnc(N)c1Cl)c1ncc(C(=O)Nc2cc(C(F)(F)F)c(Cl)cn2)s1 + C=CC(=O)N1CCN(c2nc(OCC3CCCN3C)nc3c(F)c(-c4nc(N)cc(C)c4C(F)(F)F)c(Cl)cc23)C(C)C1 , state its recorded viability, T/C.
**A:** 25.8
